- system name: Endothelial lipase (Homo sapiens, UniProt Q9Y5X9)
- Sequence (Q9Y5X9 whole entry): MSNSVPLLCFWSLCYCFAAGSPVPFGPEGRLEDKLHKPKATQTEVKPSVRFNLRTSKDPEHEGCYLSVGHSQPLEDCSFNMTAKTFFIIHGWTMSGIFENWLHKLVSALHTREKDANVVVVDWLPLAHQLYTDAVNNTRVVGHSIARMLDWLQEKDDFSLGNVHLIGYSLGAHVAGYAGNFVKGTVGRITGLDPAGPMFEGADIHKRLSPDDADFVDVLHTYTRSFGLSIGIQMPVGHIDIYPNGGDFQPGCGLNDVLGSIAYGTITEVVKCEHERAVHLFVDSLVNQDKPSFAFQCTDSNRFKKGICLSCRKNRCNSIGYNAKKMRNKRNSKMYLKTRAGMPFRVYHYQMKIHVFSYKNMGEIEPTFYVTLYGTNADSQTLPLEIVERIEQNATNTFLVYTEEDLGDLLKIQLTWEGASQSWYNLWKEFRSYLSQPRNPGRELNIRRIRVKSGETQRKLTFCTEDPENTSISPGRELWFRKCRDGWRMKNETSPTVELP
- assay info: Inhibition of endothelial lipase in human serum
- Type: cell-free
pIC50: −log10 of the molar value.
reported metric: pIC50

Look over these answered cases.
> print(dat)
                                    compound  reported.metric  observed.value
 1  N#CC(C(=O)NCC(=O)NC1CC1)c1nc2ccc(-c3ccc(C(=O)N4CCOCC4)cc3)cc2s1 (racemic)            pIC50            7.30
 2  CN1CCN(C(=O)c2ccc(-c3ccc4nc(C(C#N)C(=O)NCC(=O)NC5CCC5)sc4c3)cc2)CC1 (racemic)            pIC50            6.70
 3  CN(C)C(=O)c1cccc(-c2ccc3nc(C(C#N)C(=O)NCC(=O)NC4CC4)sc3c2)c1 (racemic)            pIC50            7.52
 4  N#CC(C(=O)NCC(=O)N1CCCC1)c1nc2ccc(-c3ccccc3)cc2s1 (racemic)            pIC50            5.96
 5  CN(C)C(=O)c1ccc(-c2ccc3nc(C(C#N)C(=O)NCC(=O)NC4CC4)sc3c2)cc1F (racemic)            pIC50            7.15
 6  N#CC(C(=O)NCC(=O)NC1CC1)c1nc2ccc(-c3ccc(F)nc3)cc2s1 (racemic)            pIC50            6.64
 7  N#CC(C(=O)NCC(=O)NC1CC1)c1nc2ccc(-c3ccc4c(c3)C(=O)NC4)cc2s1 (racemic)            pIC50            6.89
 8  N#CC(C(=O)NCC(=O)NC1COC1)c1nc2ccc(-c3ccc(F)nc3)cc2s1 (racemic)            pIC50            7.30
 9  N#CC(C(=O)NCC(=O)NC1CC1)c1nc2ccc(-c3ccc(NC(=O)OCc4ccccc4)cc3)cc2s1 (racemic)            pIC50            7.10
10  N#CC(C(=O)NCC(=O)NC1CC1)c1nc2ccc(-c3ccc4c(c3)CNC4=O)cc2s1 (racemic)            pIC50            7.00

P = CN1CCN(C(=O)c2ccc(-c3ccc4nc(C(C#N)C(=O)NCC(=O)NC5CC5)sc4c3)cc2)CC1 (racemic)
Q = N#CC(C(=O)NCC(=O)NC1CC1)c1nc2ccc(-c3cccc(C(=O)N4CCCCC4)c3)cc2s1 (racemic)
When the recorded pIC50 values are compared, which is smaller: that of P or that of Q ? State your choice using its label.
Q
(Q: 6.85, P: 7.52)

a = N#CC(C(=O)NCC(=O)NC1CC1)c1nc2ccc(-c3ccccc3)cc2s1 (racemic)
b = N#CC(C(=O)NCC(=O)NC1CC1)c1nc2ccc(-c3ccc(C(=O)N4CCC4)cc3)cc2s1 (racemic)
Could you tell me which of a and b has the lower pIC50 reading? API: response body contains the label of the selected item.
b

---

- system name: Cytochrome P450 3A4 (Homo sapiens, UniProt P08684)
- Sequence (P08684 whole entry): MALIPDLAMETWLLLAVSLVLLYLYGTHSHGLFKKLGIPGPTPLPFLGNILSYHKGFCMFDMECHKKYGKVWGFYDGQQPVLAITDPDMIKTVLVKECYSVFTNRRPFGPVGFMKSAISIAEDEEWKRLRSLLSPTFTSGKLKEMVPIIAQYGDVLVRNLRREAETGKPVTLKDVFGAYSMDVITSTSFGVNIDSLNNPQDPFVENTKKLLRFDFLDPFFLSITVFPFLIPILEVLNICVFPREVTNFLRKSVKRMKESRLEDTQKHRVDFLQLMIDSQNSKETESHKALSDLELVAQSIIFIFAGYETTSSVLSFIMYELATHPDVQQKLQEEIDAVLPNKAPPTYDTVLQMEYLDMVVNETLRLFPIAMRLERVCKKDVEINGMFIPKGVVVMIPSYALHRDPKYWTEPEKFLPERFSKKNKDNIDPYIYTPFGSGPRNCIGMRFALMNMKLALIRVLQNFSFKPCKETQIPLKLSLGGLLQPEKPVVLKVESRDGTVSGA
- assay info: Inhibition of CYP3A4 (unknown origin)
- Type: ADME
pIC50: −log10 of the molar value.
reported metric: pIC50

> print(dat)
                                   compound  observed.value
1  N#CC(C(=O)NCC(=O)NC1CC1)c1nc2ccc(-c3ccccc3)cc2s1 (racemic)          < 4.74
2  CN(C)C(=O)c1cccc(-c2ccc3nc(C(C#N)C(=O)NCC(=O)NC4CC4)sc3c2)c1 (racemic)          < 4.74
3  N#CC(C(=O)NCC(=O)NC1CC1)c1nc2ccc(-c3ccc(C(=O)N4CCOCC4)cc3)cc2s1 (racemic)          < 4.74

Give reported pIC50 value for CN1CCN(C(=O)c2ccc(-c3ccc4nc(C(C#N)C(=O)NCC(=O)NC5CC5)sc4c3)cc2)CC1 (racemic)
< 4.74
